Target: Beta-secretase 1 (Homo sapiens)
Sequence (P56817 whole entry): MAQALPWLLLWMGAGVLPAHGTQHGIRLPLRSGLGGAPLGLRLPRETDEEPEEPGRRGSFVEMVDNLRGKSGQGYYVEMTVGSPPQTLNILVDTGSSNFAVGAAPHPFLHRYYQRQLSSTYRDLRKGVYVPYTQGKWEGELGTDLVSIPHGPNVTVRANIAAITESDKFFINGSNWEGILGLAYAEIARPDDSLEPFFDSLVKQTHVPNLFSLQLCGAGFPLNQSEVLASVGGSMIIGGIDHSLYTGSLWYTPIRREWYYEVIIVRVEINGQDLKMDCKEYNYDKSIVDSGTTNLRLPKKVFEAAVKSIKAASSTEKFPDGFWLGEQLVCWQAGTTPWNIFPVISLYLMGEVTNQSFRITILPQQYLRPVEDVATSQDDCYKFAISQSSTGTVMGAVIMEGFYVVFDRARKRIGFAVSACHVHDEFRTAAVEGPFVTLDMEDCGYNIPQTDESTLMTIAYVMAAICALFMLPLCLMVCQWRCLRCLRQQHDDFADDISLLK
Test: In vitro inhibitory activity against Beta-secretase 1 in human HEK293 cells
Decide using IC50 alone. Strictly below 4 µM: condition met. Equal to or above 4 µM: condition not met.

| molecule | label class |
| --- | --- |
| CC[C@H](C)[C@H](O)C(=O)N[C@@H](CC(F)F)C(=O)N[C@@H](Cc1ccccc1)[C@@H](O)C[C@@H](CC(F)F)C(=O)N[C@H](C(=O)NCc1ccncc1)C(C)C | condition met |
| CC(C[C@H](O)[C@H](Cc1ccccc1)NC(=O)[C@H](COC(C)(C)C)NC(=O)[C@@H](O)C(C)C)C(=O)N[C@H](C(=O)NCc1ccncc1)C(C)C (single isomer, unassigned) | condition not met |
| CC(C[C@H](O)[C@H](Cc1ccccc1)NC(=O)[C@@H](NC(=O)[C@@H](O)C(C)C)C(C)C)C(=O)N[C@H](C(=O)NCc1ccncc1)C(C)C (single isomer, unassigned) | condition not met |
| CC(C[C@H](O)[C@H](Cc1ccccc1)NC(=O)[C@H](C)NC(=O)[C@@H](F)C(C)C)C(=O)N[C@H](C(=O)NCc1ccncc1)C(C)C (single isomer, unassigned) | condition met |
| CC(C)C[C@H](O)C(=O)N[C@@H](C)C(=O)N[C@@H](Cc1ccccc1)[C@@H](O)CC(C)C(=O)N[C@H](C(=O)NCc1ccncc1)C(C)C (single isomer, unassigned) | condition met |
